test: protein stability index of a GFP-peptide fusion (yeast GPS) (PSI 1-4); higher = more stable; sorted into four equal gates, so the index is relative within each strain; conditions: san1∆
Endpoint name: protein stability index

Look over these answered cases.
INSERT INTO results (residue_string, endpoint_name, value_reported) VALUES
  ('NKLEKLNSLLTYIKSEI [SMC4]', 'protein stability index', 2.66),
  ('TKNDAGSKQILKTEAAN [BRR2]', 'protein stability index', 2.93);

// switching to the query sequence
So what does the record say about protein stability index for LKMQQQQQQQQQQQQQQ [GAL11] ? 2.62

---

assay: protein stability index of a GFP-peptide fusion (yeast GPS) (PSI 1-4); higher = more stable; sorted into four equal gates, so the index is relative within each strain; conditions: san1∆
Entries and their protein stability index
Lab note: jot down the number only; don't add units.

INSERT INTO results (residue_string, value_reported) VALUES
  ('AEKSYLYDSLASTPSIR [RRP42]', 2.46),
  ('LNKDSTNEFVGSPSLTS [NUT1]', 2.93),
  ('SASLFKQRKNPRRIAWT [RPL24A]', 2.96);

So what does the record say about protein stability index for VFLRNRLKYALNGREVK [RPS4A] ? 2.69

So what does the record say about protein stability index for NDIAGQPQALQKSGRPV [RPO21] ? 2.84

So what does the record say about protein stability index for KNSTSSMTAVPKPLKFL [RPN1] ? 1.98

So what does the record say about protein stability index for QTVRLIKDLQRAINKVL [SIR2] ? 1.22

---

experiment: protein stability index of a GFP-peptide fusion (yeast GPS) (PSI 1-4); higher = more stable; sorted into four equal gates, so the index is relative within each strain; details: doa10∆
Entries and their protein stability index
Lab note: jot down the number only; don't add units.

So what does the record say about protein stability index for WIKFLLHTLYLRPASAI [SSN8] ? 1.74

So what does the record say about protein stability index for DEIDAALDFRNVSIVAN [SMC4] ? 1.75

So what does the record say about protein stability index for FVFTNEPLTEIKNVIVS [RPP0] ? 1.84

So what does the record say about protein stability index for VAAASKILSNLVYQYKG [PRE2] ? 2.62

So what does the record say about protein stability index for VKLGLNSKMPTRFPPAV [PRP8] ? 2.78

---

Entries and their protein stability index
assay: protein stability index of a GFP-peptide fusion (yeast GPS) (PSI 1-4); higher = more stable; sorted into four equal gates, so the index is relative within each strain; details: ubr1∆
Lab note: jot down the number only; don't add units.

Look over these answered cases.
INSERT INTO assay_data (residue_string, endpoint_name, value_reported) VALUES
  ('TKLTTCKRELAFVKQKN [YIL149C/MLP2]', 'protein stability index', 1.48),
  ('GGDSDANGTFMDFGVDP [RPN10]', 'protein stability index', 2.96);

// switching to the query sequence
So what does the record say about protein stability index for VTYSDVGGCKDQIEKLR [RPT1] ? 3.39

---

Entries and their protein stability index
assay: protein stability index of a GFP-peptide fusion (yeast GPS) (PSI 1-4); higher = more stable; sorted into four equal gates, so the index is relative within each strain; details: doa10∆
Lab note: jot down the number only; don't add units.

Look over these answered cases.
INSERT INTO measurements (residue_string, value_reported) VALUES
  ('LIVDTHVQFRLGNVDAF [PRP8]', 2.75),
  ('RHSNALVDILPPDSDSS [RPT3]', 2.51),
  ('AKTFIDLESSSPELKAD [RPS7B]', 3.03),
  ('EQEDIIEKTESVDKKVD [SWI3]', 3.04),
  ('PDLQFIVISLKNTMFEK [SMC1]', 2.83),
  ('IKDTANDNDITVKENES [UBP6]', 2.88);

// switching to the query sequence
So what does the record say about protein stability index for LEKTSRILNFFDKNTKT [YMR153W/NUP53] ? 2.59
